Origin of the recorded values: a melting point compilation (Tetko et al.)

EXPERIMENTAL READOUT: melting point

Consider the worked cases shown below.
SMILES INPUT	EXPERIMENTAL READOUT	RESULT
O=Cc1ccc(-c2ccccc2Cl)o1	melting point	75 to 78 °C
N#CCC[Si](Cl)(Cl)Cl	melting point	33 to 34 °C
Cc1onc(-c2c(Cl)cccc2Cl)c1C(N)=S	melting point	173 to 176 °C
Cc1nc2ccccc2c2c1C(=O)NC2=O	melting point	255 to 256 °C
Cc1cc(C(=O)CC#N)c(C(F)(F)F)o1	melting point	75 to 77 °C

Record melting point for all entries; do not skip any.
1. CC1(C)CC(=O)CC(C)(C)C1
2. O=Cc1ccc(-c2ccccc2[N+](=O)[O-])o1
3. Nc1ccc(-n2cccn2)cc1
4. COC1(OC)CC=CCC(OC)(OC)CC=CC1
5. O=Cc1cc2cccnc2s1
6. COC(=O)CS(C)(=O)=O

1. 11 to 12 °C
2. 96 to 98 °C
3. 54 to 55 °C
4. 201 to 202 °C
5. 142 to 143 °C
6. 62 to 63 °C
